Target: T1, Cynomolgus monkey CD98 ECD with C-terminal His-tag (cynomolgus monkey, UniProt P08195 105-529 (human entry))
T1 construct: The entry includes the linker and the polyhistidine tag; also called cyCD98 ECD
T1 chain: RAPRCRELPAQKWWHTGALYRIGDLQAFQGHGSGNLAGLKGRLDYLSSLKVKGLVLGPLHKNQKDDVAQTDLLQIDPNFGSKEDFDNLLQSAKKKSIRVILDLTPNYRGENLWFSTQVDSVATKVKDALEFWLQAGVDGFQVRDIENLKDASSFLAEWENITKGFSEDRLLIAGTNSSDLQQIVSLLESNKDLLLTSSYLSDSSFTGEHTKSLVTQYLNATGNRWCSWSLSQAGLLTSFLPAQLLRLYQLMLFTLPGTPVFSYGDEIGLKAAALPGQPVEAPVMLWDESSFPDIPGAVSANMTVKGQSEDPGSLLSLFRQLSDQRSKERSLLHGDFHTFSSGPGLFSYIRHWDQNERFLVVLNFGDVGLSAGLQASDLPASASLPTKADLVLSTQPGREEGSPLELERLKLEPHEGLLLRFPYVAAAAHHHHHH
Assay: SPR (Biacore), antibody captured on anti-Fc surface, CD98 ECD in solution
Listed next: entries and their corresponding Kd.
Provide only the numeric value, understood in nM.

huAb15v1 (antibody, V domains shown, Humanized, further engineered clone of chAb15, converted to IgG and expressed as a full-length antibody) VH: EVQLVESGGGVVQPGRSLRLSCAASGFTFSDYTMAWVRQAPGKGLEWVATIIYSGRGTYYRDAVKGRFTISRDNSKSTLYLQMNSLRAEDTAVYYCARQSDHTYYYWGYFDYWGQGTMVTVSS VL: DIVMTQSPDSLAVSLGERATINCKSSQSLLFSGNQKNYLAWYQQKPGQSPKLLIYWASTRQSGVPDRFSGSGSGTDFTLTIRSLQAEDVAIYYCQQYYDVPYTFGQGTKLEIK : 1

Incoming: State the recorded Kd for this entry: huAb15v5 (antibody, V domains shown, Humanized, further engineered clone of chAb15, converted to IgG and expressed as a full-length antibody) VH: EVQLVESGGGVVQPGRSLRLSCAASGFTFSDYTMAWVRQAPGKGLEWVATIIYTGRGTYYRDAVKGRFTISRDNSKSTLYLQMNSLRAEDTAVYYCARQSDDTYYYWGYFDYWGQGTMVTVSS VL: DIVMTQSPDSLAVSLGERATINCKSSQSLLFSGNQKNYLAWYQQKPGQSPKLLIYWASTRQSGVPDRFSGSGSGTDFTLTIRSLQAEDVAIYYCQQYYSSPYTFGQGTKLEIK
Outgoing: 11

Incoming: Would you kindly repeat that for huAb15v2 (antibody, V domains shown, Humanized, further engineered clone of chAb15, converted to IgG and expressed as a full-length antibody) VH: EVQLVESGGGVVQPGRSLRLSCAASGFTFSDYTMAWVRQAPGKGLEWVATIIYSGRGTYYRDAVKGRFTISRDNSKSTLYLQMNSLRAEDTAVYYCARQSDDTYYYWGYFDYWGQGTMVTVSS VL: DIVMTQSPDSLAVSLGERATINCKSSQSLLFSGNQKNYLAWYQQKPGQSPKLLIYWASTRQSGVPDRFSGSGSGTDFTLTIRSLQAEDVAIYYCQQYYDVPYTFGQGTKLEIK ?
Outgoing: 2.3

The measurements presented in this section are drawn from patent US20200147235A1.
